# assay-details: chemical genetic growth profiling, strain panel (AID 1159580);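 note: tested at 20 µM; growth read once vehicle control cultures reached saturation at 30 °C; 1 = growth at the plate median or of vehicle wells; lower values mean less growth of the strain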
# measurement-setup: S. cerevisiae deletion strains, growth OD, locus YDR162C, strain NBP2, hits give low values
The whole screen tested about 5,500 compounds, of which about 2,000 (36%) were called active. Inconclusive results (about 18%) are left out. The list shows a part of the results.
property-name: normalized growth

CC1=C(/C=C/C(C)=C/C=C/C(C)=C/C=C/C=C(C)/C=C/C=C(C)/C=C/C2=C(C)CCCC2(C)C)C(C)(C)CCC1: 1.02 (inactive)
S=c1[nH]c2ccccc2s1: 0.986 (inactive)
CCCSP(=O)(OCC)SCCC: 1.02 (inactive)
CC1(C)CC2C1CCC1(C)OC2(C)CCC1O (stereo unspecified): 1.02 (inactive)
CC1=C(/C=C/C(C)=C/C=C/C(C)=C/CO)C(C)(C)CCC1: 0.993 (inactive)

Please turn your attention to the following entry.
Lab note: measured normalized growth of "CC(=O)OC/C=C(C)/C=C/C=C(C)/C=C/C1=C(C)CCCC1(C)C" was 1.01 (inactive)
